- TESTED SYSTEM: human 5-HT3A receptor F199A mutant (Homo sapiens, UniProt P46098, F221A)
- PROCEDURE SUMMARY: Two-electrode voltage clamp, I5-HT inhibition, F199A mutant
- ASSAY CONTEXT: −80 mV, Table 1
QUANTITY: IC50 (µM)
Report the figure in µM without appending any unit label.

Entry O=c1c(O)c(-c2ccc(O)cc2)oc2cc(O)cc(O)c12 — recorded IC50 = 21.5

* * *

- TESTED SYSTEM: human 5-HT3A receptor D177A mutant (Homo sapiens, UniProt P46098, D199A)
- PROCEDURE SUMMARY: Two-electrode voltage clamp, I5-HT inhibition, D177A mutant
- ASSAY CONTEXT: −80 mV, Table 1
QUANTITY: IC50 (µM)
Report the figure in µM without appending any unit label.

Entry O=c1c(O)c(-c2ccc(O)cc2)oc2cc(O)cc(O)c12 — recorded IC50 = 13.9

* * *

- TESTED SYSTEM: human 5-HT3A receptor (wild type) (Homo sapiens, UniProt P46098)
- PROCEDURE SUMMARY: Two-electrode voltage clamp, inhibition of serotonin-induced inward current (I5-HT) in Xenopus oocytes expressing wild-type receptor
- ASSAY CONTEXT: Wild type; −80 mV; Table 1
QUANTITY: pIC50
Note on units: pIC50 is unitless, being -log10 of a concentration expressed in mol/L.

pIC50 of O=c1c(O)c(-c2ccc(O)cc2)oc2cc(O)cc(O)c12 , assay on human 5-HT3A receptor (wild type) (Homo sapiens, UniProt P46098), is 4.63

* * *

- TESTED SYSTEM: human 5-HT3A receptor D177A+F199A double mutant (Homo sapiens, UniProt P46098, D199A/F221A)
- Sequence (P46098 24-478 D199A/F221A): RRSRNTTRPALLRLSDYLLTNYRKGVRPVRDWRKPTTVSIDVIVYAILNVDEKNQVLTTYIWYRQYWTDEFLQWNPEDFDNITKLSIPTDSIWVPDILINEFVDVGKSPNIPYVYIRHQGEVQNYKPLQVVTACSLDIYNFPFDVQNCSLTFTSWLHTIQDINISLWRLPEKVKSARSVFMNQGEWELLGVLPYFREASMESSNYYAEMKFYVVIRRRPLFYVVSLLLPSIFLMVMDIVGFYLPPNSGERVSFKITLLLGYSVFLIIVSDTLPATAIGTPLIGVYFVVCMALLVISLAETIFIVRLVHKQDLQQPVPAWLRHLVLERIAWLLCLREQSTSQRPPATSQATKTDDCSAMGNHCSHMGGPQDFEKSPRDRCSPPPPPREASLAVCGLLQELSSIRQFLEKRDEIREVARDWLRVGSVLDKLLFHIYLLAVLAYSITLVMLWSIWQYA
- PROCEDURE SUMMARY: Two-electrode voltage clamp, I5-HT inhibition, D177A+F199A double mutant
- ASSAY CONTEXT: D177A+F199A; −80 mV; Table 1
QUANTITY: pIC50
Note on units: pIC50 is unitless, being -log10 of a concentration expressed in mol/L.

Entry O=c1c(O)c(-c2ccc(O)cc2)oc2cc(O)cc(O)c12 — recorded pIC50 = 4.37
